Tested on: Fer (mouse);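 note: 11-residue human phosphosite peptides and single-mutation variants displayed on the E. coli surface, counted by deep sequencing, each peptide's frequency after selection divided by its frequency in the unselected input library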;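 note: frequency after pTyr selection over input frequency; kinase dosed for 20-30% of maximal phosphorylation in three min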
Assay: phosphorylation enrichment, bacterial display (enrichment ratio); higher = better substrate or ligand; peptides without Tyr show the background
attribute.measured: phosphorylation enrichment

> print(dat)
                   residue.sequence       system          attribute.measured  reported
 1        IRKAEYPFSSE [ATP2C1_Y452]  Fer (mouse)  phosphorylation enrichment     0.366
 2    PLDGEYFTHQI [TP53_Y327_L330H]  Fer (mouse)  phosphorylation enrichment      1.08
 3      LTGIAYSLPHW [SLC22A14_Y291]  Fer (mouse)  phosphorylation enrichment     0.877
 4     YQASYYRRGDR [LTK_Y677_R673Q]  Fer (mouse)  phosphorylation enrichment     0.403
 5   EPGNLYIAKVE [CNTN4_Y180_T176P]  Fer (mouse)  phosphorylation enrichment     0.408
 6      GGPAEYLRRAS [PKLR_Y38_G37E]  Fer (mouse)  phosphorylation enrichment     0.367
 7          IFGVSYDEYRY [CFTR_Y512]  Fer (mouse)  phosphorylation enrichment     0.496
 8        ALKKPYGVLFK [RPF2_Y59_YF]  Fer (mouse)  phosphorylation enrichment     0.403
 9      PFTRNYYVQAV [CYBA_Y87_R90Q]  Fer (mouse)  phosphorylation enrichment     0.555
10  RNEAFYDTFST [EFCAB3_Y372_S370A]  Fer (mouse)  phosphorylation enrichment      7.96
11      SLGKGYYDGGC [MC4R_Y35_S36Y]  Fer (mouse)  phosphorylation enrichment     0.648
12      FTRNYYVWAVL [CYBA_Y88_R90W]  Fer (mouse)  phosphorylation enrichment      1.42
13       AESPEYVHMYT [FAM111A_Y511]  Fer (mouse)  phosphorylation enrichment     0.467
14      SGRSGYCLGTR [SCO1_Y60_P58S]  Fer (mouse)  phosphorylation enrichment     0.399

* * *

Target: Grb2 SH2 (UniProt P62993)
Sequence (P62993 whole entry, looked up): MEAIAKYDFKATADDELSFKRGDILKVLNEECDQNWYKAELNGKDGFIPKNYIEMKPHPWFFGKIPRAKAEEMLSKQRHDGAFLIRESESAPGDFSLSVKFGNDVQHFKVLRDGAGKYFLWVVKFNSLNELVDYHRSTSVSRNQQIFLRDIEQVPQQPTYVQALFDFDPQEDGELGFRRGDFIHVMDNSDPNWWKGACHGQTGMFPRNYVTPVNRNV
Experiment: SH2 binding enrichment of the phosphorylated peptide, bacterial display (enrichment ratio); higher = better substrate or ligand; peptides without Tyr show the background
attribute.measured: SH2 binding enrichment

> print(dat)
                    residue.sequence      attribute.measured  reported
 1    PSPMPCASCQM [FOXL2_Y215_Y215C]  SH2 binding enrichment     0.797
 2          MSYDRYMAICH [OR2A5_Y123]  SH2 binding enrichment     0.753
 3         RSPLRYTSILT [OR51B6_Y130]  SH2 binding enrichment      1.67
 4    ISDDNYGRIRL [ARCN1_Y310_K309N]  SH2 binding enrichment         1
 5    IENKLCGMSDP [RET_Y1062_Y1062C]  SH2 binding enrichment     0.656
 6      YGSGNYNDFGN [HNRNPA2B1_Y300]  SH2 binding enrichment      0.94
 7          EPTPGYEVGQR [TSC2_Y1788]  SH2 binding enrichment     0.812
 8      FADIAYNYHHG [PAH_Y166_R169H]  SH2 binding enrichment     0.751
 9           DLAAQYTTVGR [SGSH_Y240]  SH2 binding enrichment     0.824
10  VSLEAYCKHKF [RXRA_Y403_A398V_YF]  SH2 binding enrichment     0.702
11    DRLASYQDKVR [KRT12_Y139_L140Q]  SH2 binding enrichment     0.786
12           ADKAAYLQSLN [MYH2_Y389]  SH2 binding enrichment      0.86
13         LSAPEYGPKLK [TBC1D14_Y46]  SH2 binding enrichment      1.02
14    EKHGQYLIGHG [EPHB4_Y581_D576E]  SH2 binding enrichment     0.792

src = the supplement of paper PMC10065799
